# Tested on: UACC-257 melanoma
# Protocol text: NCI tumour cell line growth inhibition, 48 h
Listing: TGI of selected compounds
Reported metric: TGI (µM)

In [3]: df
Out[3]:
                                   compound  reported_metric  unit_annotation  limit_qualifier  readout_value
0  c1ccc2c(c1)c1ccccc1n2Cn1c2ccccc2c2ccccc21              TGI               µM                >            100
1  O=[N+]([O-])c1cc([As](Br)c2ccc(O)c([N+](=O)[O-])c2)ccc1O              TGI               µM                =           3.33
2  Nc1nc2ccc(Sc3ccc4nc(N)[nH]c(=O)c4c3)cc2c(=O)[nH]1              TGI               µM                >            100
3  O=C(CC1(O)C(=O)Nc2ccc(F)cc21)c1ccc(C(=O)NCC2CCC3(CC2)OOC2(CCCCC2)OO3)cc1 (stereo not given)              TGI               µM                =           29.9
4  O=c1[nH]nc(-c2ccccc2)n1/N=C/c1cccc([N+](=O)[O-])c1              TGI               µM                >            100

---

# System: UACC-257 melanoma
# Protocol text: NCI tumour cell line growth inhibition, 48 h
Reported metric: TGI

In [3]: df
Out[3]:
                                   compound  readout_value
0  CC(=O)C(C(=O)c1ccc(C)cc1)[C@H]1OC(C)(C)O[C@H]1[C@H]1COC(C)(C)O1 (stereo not given in full)        11.9 µM
1      O=c1cc(-c2ccccc2)[nH]c2cc(F)cc(F)c12       > 100 µM
2       Nc1nc(N)c2cc(Sc3ccc4ccccc4c3)ccc2n1        4.61 µM
3           Clc1ccc(/C=C/c2ccc3ccccc3n2)cc1       > 100 µM
4  CC(=O)O[C@H]1CC[C@@]2(C)C(=CC[C@@H]3[C@@H]2CC[C@]2(C)c4c(n[nH]c4C)C[C@@H]32)C1        33.2 µM
5  CC(C)(C)C(=O)Oc1ccc(/C=C/C(=O)c2ccc(OC(=O)C(C)(C)C)cc2)cc1       > 100 µM
6  CC(=O)/C=C/c1ccc(Nc2c3ccccc3nc3occ(Cl)c23)cc1        5.59 µM
7           c1ccc2cc3c(NC4=NCCO4)cccc3cc2c1       > 100 µM
8      CCOC(=O)/C=C/c1c(C)[nH]c(=O)[nH]c1=O       > 250 µM
9  O=C(c1ccccc1)N1C(=O)N(c2ccccc2)C(=Nc2ccccc2)C1=Nc1ccccc1       > 100 µM

---

# Test system: SK-MEL-2 melanoma
# Protocol text: NCI tumour cell line growth inhibition, 48 h
Listing: GI50 of selected compounds
Reported metric: GI50

Compound	Readout value
Cc1ccc(S(=O)(=O)c2nc(-c3ccccc3)oc2S(C)(=O)=O)cc1	3.4 µM
COc1cccc2c1C(=O)c1c(O)c3c(c(O)c1C2=O)C[C@@](O)(C(=O)COC(=O)c1ccccc1)C[C@@H]3OC1CC(N)C(O)C(C)O1 (stereo not given in full)	0.563 µM
COc1ccc(-c2c(C#N)c(N)nc(N3CCOCC3)c2C#N)cc1	27.1 µM
Cn1c(=O)n(C)c2cc(CNCCNc3ccnc4cc(Cl)ccc34)ccc21	22.6 µM
CCCC1(CN2c3ccccc3Sc3ccc(Cl)cc32)CCN(CC)C1 (stereo not given)	2.3 µM
Cc1cc(N/N=C/c2nc(-c3ccc(Cl)cc3)oc2C)c2cc(Br)ccc2n1	17.5 µM
C=C1C(=O)O[C@H]2[C@H]1CC/C(Cn1cc(-c3ccc(N)cc3)nn1)=C\CC[C@@]1(C)O[C@@H]21	10.6 µM
CCCN(CCC)c1ccc(C=O)c(Cl)c1	15 µM
N=c1ccc2nc3ccc(N)cc3sc-2c1	6.08 µM
Cc1cn(-c2cccc(NC(=O)c3ccc(C)c(Nc4nccc(-c5cccnc5)n4)c3)c2)cn1	2.58 µM

---

# Test system: MALME-3M melanoma
# Protocol text: NCI tumour cell line growth inhibition, 48 h
Listing: TGI of selected compounds
Reported metric: TGI (µM)

Compound	Tested target	Limit qualifier	Readout value
N#CC1=C(N)N(/N=C/c2ccccc2)C(c2ccccc2)C1(C#N)C#N (configuration not stated)	MALME-3M melanoma	=	4.39
O=C1c2cccnc2-c2nc(-c3cccnc3)cc3c2c1nc1ccccc13	MALME-3M melanoma	=	32.4
Clc1ccc(/C=C/c2ccc3ccccc3n2)cc1	MALME-3M melanoma	=	71.8
CCOC(=O)C1Cc2ccc3c4c(ccc(c24)C1)CC(C(=O)OCC)C3	MALME-3M melanoma	>	100
COc1ccc(O)c(C(=O)CCC(=O)O)c1	MALME-3M melanoma	>	100
N=c1oc2ccccc2cc1-c1nc2ccccc2[nH]1	MALME-3M melanoma	=	72
O=C(O)c1nc2ccc(C(F)(F)F)cc2nc1Nc1ccc(Cl)c(Cl)c1	MALME-3M melanoma	=	31
COc1ccc2c(c1)CN([C@@H](C)[C@H]1CC[C@H]3[C@@H]4CC[C@H]5C[C@@H](O)CC[C@]5(C)[C@H]4CC[C@]13C)CO2	MALME-3M melanoma	=	3.47
N#Cc1c(Cl)c2cccnc2n2c1nc1ccccc12	MALME-3M melanoma	=	3.28
COC(=O)CCC1(CCC(=O)OC)CCCCCCC(CCC(=O)OC)(CCC(=O)OC)C(=O)C1=O	MALME-3M melanoma	>	100
COC/N=C(\NC#N)NCOC	MALME-3M melanoma	>	100
O=C1C[C@@]23CCC4(CC2CCC[C@H]3O1)OCCO4 (some centres not stated)	MALME-3M melanoma	>	100
N#Cc1c2ccc([N+](=O)[O-])cc2c(=O)n2c1[nH]c1ccc(C(F)(F)F)cc12	MALME-3M melanoma	>	100
Cc1ccc(/C=C2\NC(=S)NC2=O)cc1	MALME-3M melanoma	>	100
NC(=O)c1cccnc1	MALME-3M melanoma	>	100
O=c1c2c(-c3ccccc3)c3ccccc3nc2cnn1-c1ccccc1	MALME-3M melanoma	>	100
CC(=O)/C=C/c1ccc(Nc2c3ccccc3nc3occ(Cl)c23)cc1	MALME-3M melanoma	=	24.9
N=c1c2ccccc2sc2nc3ccccc3n12	MALME-3M melanoma	>	100
CCCC1(CN2c3ccccc3Sc3ccc(Cl)cc32)CCN(CC)C1 (configuration not stated)	MALME-3M melanoma	=	3.63
CN(C)c1ccc(/C=C(\NC(=O)c2ccccc2)c2nc3ccc4c(c3[nH]2)C(=O)c2ccccc2C4=O)cc1	MALME-3M melanoma	>	100
CC(/C=C/C(O)=C1/C(=O)CNC1=O)=C\[C@@H](C)[C@H]1O[C@@]2(C)O[C@H](C(=O)[C@@H]3O[C@@]32C)[C@@H]1C	MALME-3M melanoma	=	38
O=c1[nH]ncc2[nH]c3c4ccccc4ccc3c12	MALME-3M melanoma	>	100
O=C(c1cccs1)c1nccc2c1cnc1ccccc12	MALME-3M melanoma	>	100
CN(C)N1C(=O)SCC(c2ccccc2)(c2ccccc2)C1=O	MALME-3M melanoma	>	100
COc1ccc(/C=C(\NC(=O)c2ccccc2)c2nc3ccccc3[nH]2)cc1OC	MALME-3M melanoma	>	100
COC(=O)C1Cc2c(OC)ccc(OC)c2C(O)C1C(=O)OC (configuration not stated)	MALME-3M melanoma	>	100
CCn1cc(/C=C2\Oc3cc(OCC#N)ccc3C2=O)c2cc(OC)ccc21	MALME-3M melanoma	>	70.7
COC(=O)c1c(CC(Cc2ccc3c(c2)CCCC3)C(=O)O)ccc2c1CCCC2 (configuration not stated)	MALME-3M melanoma	>	100
C=C1C(=O)O[C@H]2[C@H]1CC/C(Cn1cc(-c3ccc(N)cc3)nn1)=C\CC[C@@]1(C)O[C@@H]21	MALME-3M melanoma	=	5.42
COc1cc(C(=O)Oc2c(C(C)=O)sc3c2c(=O)n(-c2ccccc2)c(=S)n3-c2ccccc2)cc(OC)c1OC	MALME-3M melanoma	=	27.8
Cc1ccc(Cl)cc1N=NC(=O)NNc1cc(Cl)ccc1C	MALME-3M melanoma	=	64.6
CC1CN=C(Nc2cccc(F)c2)S1 (configuration not stated)	MALME-3M melanoma	>	100
Cc1ccc(-c2c(-c3ccccc3)[nH]c(C)c2C(=O)ONC(=O)c2ccccc2)cc1	MALME-3M melanoma	=	24.7
O=C1C(CO)=C[C@H](O)[C@H]2O[C@@H]12	MALME-3M melanoma	=	319
Cc1ccc(O)c(C2=CC3=NNC(=O)C3C(c3cccc(Cl)c3)C2)c1 (configuration not stated)	MALME-3M melanoma	=	94
CN/N=C(/c1nc2ccc([N+](=O)[O-])cc2[nH]c1=O)C(O)c1ccc(C(O)/C(=N\NC)c2nc3ccc([N+](=O)[O-])cc3[nH]c2=O)cc1 (configuration not stated)	MALME-3M melanoma	>	100
CC(Oc1ccc(Oc2cnc3ccc(Cl)cc3n2)cc1)C(=O)O (configuration not stated)	MALME-3M melanoma	>	100
COc1cc(/C=C2\C[C@H]3[C@@H]4CCC5=CC(=O)CC[C@]5(C)[C@H]4CC[C@]3(C)C2=O)cc(OC)c1OC	MALME-3M melanoma	>	100
Cc1cc(N/N=C/c2nc(-c3ccc(Cl)cc3)oc2C)c2cc(Br)ccc2n1	MALME-3M melanoma	=	4.23
COc1ccc(-c2nc(-c3nc4cc(Cl)c(F)cc4[nH]3)c3ccccn23)cc1	MALME-3M melanoma	>	100
O=C(NN1C(=O)CSC1c1cccc(Cl)c1)C(O)c1ccccc1 (configuration not stated)	MALME-3M melanoma	>	100
Cc1cc(CCl)c(C)cc1CCl	MALME-3M melanoma	=	5.46
